All values here come from ChEMBL document CHEMBL2375293.

# MEASUREMENT NOTES: Cytotoxicity against human C8166 cells assessed as inhibition of cell viability at CC50 after 3 days by MTT assay
# Format: cell-based
# SETUP CONDITIONS: read-out: INH
QUANTITY KIND: cytotoxicity at 72 h (%)

CCNCC(=O)Nc1ccc(-c2nc(=O)n(CCOC)c3c2oc2ccc(-c4cccnc4)cc23)cc1 33
COCCn1c(=O)nc(-c2cnc(N3CCN(C)CC3)nc2)c2oc3ccccc3c21 40
COCCn1c(=O)nc(-c2ccc(N3CCN(C)CC3)cc2)c2oc3ccc(Cl)cc3c21 18

====

# MEASUREMENT NOTES: Cytotoxicity against human C8166 cells assessed as inhibition of cell viability after 3 days by MTT assay
# Assay type: cell-based
QUANTITY KIND: CC50 at 72 h

O=c1nc(-c2ccccc2)c2oc3ccccc3c2n1CCN1CCCC1 18 µM
O=c1nc(-c2ccccc2)c2oc3ccc(Cl)cc3c2n1CCN1CCCC1 > 7.3 µM
COCCn1c(=O)nc(-c2ccc(N3CCN(C)CC3)nc2)c2oc3ccc(Cl)cc3c21 > 5.8 µM
CCNCC(=O)Nc1ccc(-c2nc(=O)n(CCOC)c3c2oc2ccc(-c4ccc5c(c4)CCN(C)C5)cc23)cc1 4.8 µM
CCNCC(=O)Nc1ccc(-c2nc(=O)n(CCOC)c3c2oc2ccc(-c4ccccc4)cc23)cc1 2.3 µM
